Test: Nuclear factor erythroid 2-related factor 2/antioxidant responsive element (Nrf2/ARE) small molecule agonists: qHTS cell viability counter screen in human keratinocytes (AID 1919968); also: nearly all actives have a fitted effect of over 55% in size
Settings: KeratinoSens HaCaT ARE cells viability, CellTiter-Fluor, 24 h; series mostly up to 92.4 µM
Records with an inconclusive call do not appear. Activity calls are given as the source filed them. Calls follow the shape of the dose curve; as a rule, active = well fitted cell-killing curve with a large enough effect in the repeat runs; inconclusive = weak or mixed curves, or effect the other way; inactive = flat fitted curve, though single readings scatter.
Outcome codes: y = active, n = inactive

1) SCCSCCS	n
2) C=CCn1cc[n+](C)c1	n
3) CC(C)CCO	n
4) O=C(O)C[C@H](NC(=O)OCc1ccccc1)C(=O)O	n
5) COc1cc(C(=S)N2CCOCC2)cc(OC)c1OC	n
6) [Cl][In]([Cl])[Cl]	n
7) Cc1ccc2n[nH]nc2c1	n
8) N=c1nc(N2CCCCC2)cc(N)n1O	n
9) CC(=O)OC/C=C(\C)CC/C=C(\C)CCC=C(C)C	n
10) Clc1cccc(Cl)c1NC1=NCCN1	n
11) c1ccc2c(c1)ccc1ncccc12	n
12) O=C(O)c1ccc(O)cc1O	n
13) O=Cc1cc2ccccc2o1	n
14) CC(C)Oc1ccc2c(=O)c(-c3ccccc3)coc2c1	n
15) CC1(C)[C@H](C(=O)OCc2cccc(Oc3ccccc3)c2)[C@@H]1C=C(Cl)Cl	n
16) NCCOCCN	n
17) O=[N+]([O-])c1cncn1CCN1CCOCC1	n
18) CO[Si](CCCCl)(OC)OC	n
19) Cc1nc(C)c(C)nc1C	n
20) C[C@H]1C[C@H](O)c2ccsc2S1(=O)=O	n
21) Cl/C(=C\n1cncn1)c1ccc(Cl)cc1Cl	n
22) CCC(N)(CO)CO	n
23) CC1OC1C1CCC2(C)OC2C1 (stereo unspecified)	n
24) CCOc1ccc(Cc2nccc3cc(OCC)c(OCC)cc23)cc1OCC	y
25) CN(CCOc1ccc(CC2SC(=O)NC2=O)cc1)c1ccccn1 (stereo unspecified)	n
26) O[C@@H]([C@H](O)[C@H](O)CBr)[C@H](O)CBr	n
27) CC(=O)c1cc(C)oc1C	n
28) CCC(C)NC(N)=O (stereo unspecified)	n
29) CC(=O)S[C@H](C(=O)N[C@H]1Cc2ccccc2[C@H]2CCC[C@@H](C(=O)O)N2C1=O)C(C)C	n
30) CN(C)C(=O)Oc1ccc[n+](C)c1	n
31) Oc1ccc2c(c1)OC[C@@H](N1CCC(O)(c3ccc(F)cc3)CC1)[C@H]2O	n
32) NC(=O)c1ccccc1Cl	n
33) CCC(=O)OC	n
34) CC(=O)CCC(C)C	n
35) CO[Si](CCCOCC1CO1)(OC)OC (stereo unspecified)	n
36) O=S(=O)(O)c1ccccc1	n
37) Cc1cc(O)cc(C)c1Cl	n
38) COc1ccc(-c2coc3cc(O)cc(O)c3c2=O)cc1	n
39) CCN1CCCC(OC(=O)C(c2ccccc2)c2ccccc2)C1 (stereo unspecified)	n
40) Clc1ccc2c(c1)C(N1CCNCC1)=Nc1ccccc1O2	y
41) CCOC(=O)c1ccc(O)c(O)c1	n
42) c1ccc(CNCc2ccccc2)cc1	n
43) CC(=O)OCCc1ccccc1	n
44) NC(=O)Cc1cccc2ccccc12	n
45) C1CCCC1	n
46) C1COCCO1	n
47) CC(C)(CCC(=O)O)C(=O)O	n
48) C[n+]1ccn(CCO)c1	n
49) CN=C(NC#N)NCCSCc1nc[nH]c1C	n
50) CCCCCCOC(=O)CC	n
51) CN1CCOCC1	n
